From: the RNAGym collection of RNA variant scans (doi:10.1038/s41586-018-0170-7)

B1: tRNA (parent)
chain: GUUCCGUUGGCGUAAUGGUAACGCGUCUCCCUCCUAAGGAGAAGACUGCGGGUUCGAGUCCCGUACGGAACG

# Variants of: B1
# experimentNotes: yeast fitness, log relative to wild type (ln ratio); higher = fitter; tRNA-Arg(CCU), competitive growth, 37 C, 1 M NaCl
Field: yeast fitness (ln). Provide a value for each of the variants that follow.

Look up yeast fitness (ln) for this variant: U2G A43C C46U C66U A69G C71U
-0.279

Look up yeast fitness (ln) for this variant: G1A C27U C46U C66U C71U
-0.454

Look up yeast fitness (ln) for this variant: G1A U2C A70U
-0.096

Look up yeast fitness (ln) for this variant: U2G G6U C27U A43C C66U A69G A70U
-0.466

Look up yeast fitness (ln) for this variant: U2C G6U C46U C66U A69G A70G C71U
-0.1

Look up yeast fitness (ln) for this variant: G6A C27U A70U C71U
-0.227

Look up yeast fitness (ln) for this variant: C27U A43C C46U C66A C71U
-0.173

Look up yeast fitness (ln) for this variant: G6A C27U A43C C46U A69G
-0.166

Look up yeast fitness (ln) for this variant: G6A C46U C66A
-0.0719

Look up yeast fitness (ln) for this variant: G6A A43C C46U C66U A69G
-0.0394

Look up yeast fitness (ln) for this variant: A43C C66A A70U
-0.0764

Look up yeast fitness (ln) for this variant: G1A U2C C27U C46U C66U A70U C71U
-0.147

Look up yeast fitness (ln) for this variant: G1A U2G G6U C66U A70G C71U
-0.264

Look up yeast fitness (ln) for this variant: G1A A43C C46U C66U A69G C71U
-0.295

Look up yeast fitness (ln) for this variant: U2G G6A A43C C46U A69G A70G
-0.169

Look up yeast fitness (ln) for this variant: G1A U2C G6A C27U C66U A70G
-0.128

Look up yeast fitness (ln) for this variant: G1A U2C G6U C27U A43C C46U C66A A70U C71U
-0.124

Look up yeast fitness (ln) for this variant: U2C C27U C46U A70U
-0.0474

Look up yeast fitness (ln) for this variant: G1A C27U A69G A70G
-0.215

Look up yeast fitness (ln) for this variant: G1A C27U A69G A70U C71U
-0.421

Look up yeast fitness (ln) for this variant: G1A U2C C46U C66U A70G
-0.129

Look up yeast fitness (ln) for this variant: G1A G6U A43C A69G C71U
-0.28
